- experimental.system: human GLP-1 receptor (human, UniProt P43220 24-463)
- method: cell-based or functional assay
Square brackets hold non-standard residues; d marks the D form. Ends that are not written are not given here. x53 = not defined here; Aib = CC(C)(N)C(=O)O
Record form. Attribute: EC50 hGLP-1R (cAMP). Fill in for each entry.
Your answer should be a plain number; it is taken to be in pM.

Exercise: Bench note: what EC50 hGLP-1R (cAMP) did HXHGTFTSDLSKQKDSKAAQLFIEWLKAXGPSSGAPPPS (dSer at 2; K(γE-X70) at 14; dAla at 29; C-terminal NH2) [SEQ ID NO: 138] show?
Key: 5.5

Exercise: Would you mind doing HXQGTFTSDLSKQKDSRRAQDFIEWLKAXGPSSGAPPPS (dSer at 2; K(γE-X70) at 14; dAla at 29; C-terminal NH2) [SEQ ID NO: 161] as well?
Key: 5

Exercise: Would you mind doing H[Aib]QGTFTSDLSKQK(x53)ESRRAQDFIEWLKAGGPSSGAPPPS-NH2 (reading uncertain) [SEQ ID NO: 5] as well?
Key: 11

Exercise: Would you mind doing HXQGTFTSDLSKQKESXAAQDFIEWLKAGGPSSGAPPPS (dSer at 2; K(γE-x53) at 14; Aib at 17; C-terminal NH2) [SEQ ID NO: 14] as well?
Key: 4.6

Exercise: Would you mind doing HXQGTFTSDLSKQKESRRAQDFIEWLKNGGPSSGAPPPSK (dSer at 2; K(x53) at 14; C-terminal NH2) [SEQ ID NO: 112] as well?
Key: 33.6

Exercise: Would you mind doing HXQGTFTSDLSKQKESRRAQDFIEWLKRXGPSSGAPPPS (dSer at 2; K(γE-x53) at 14; dAla at 29; C-terminal NH2) [SEQ ID NO: 126] as well?
Key: 6.6
